# Target or system: T1, Human CD19-his protein (human, UniProt P15391 20-291)
# T1 construct: bought protein; also called human CD19 protein; recombinant human CD19-His; not shown: His tag
# T1 sequence (looked up): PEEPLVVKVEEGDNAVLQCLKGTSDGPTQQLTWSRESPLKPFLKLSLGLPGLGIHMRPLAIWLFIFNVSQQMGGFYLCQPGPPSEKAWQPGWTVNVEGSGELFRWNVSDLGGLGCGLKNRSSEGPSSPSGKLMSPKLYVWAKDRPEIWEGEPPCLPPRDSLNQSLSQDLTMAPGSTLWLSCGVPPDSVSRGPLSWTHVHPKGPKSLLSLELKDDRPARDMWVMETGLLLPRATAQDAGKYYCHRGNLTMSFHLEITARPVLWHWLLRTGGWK
# Test description: ELISA, antibody at 1.00 nM
Measurement name: OD450
Give your answer as a number; write no unit.

{"Binder": "F4.15.9 (antibody, human IgG1, V domains shown, human-murine chimeric antibody, human IgG1) VH: QVQLQQSGPELVKPGASVKISCKASGYAFSSSWMNWLKQRPGQGLEWIGRIYPGDGDTNYNGKFKGKATLTADESSSTAYMQLSSLTSVDSAVYFCARGITTIITIAWFASWGQGTLVTVSA VL: QIVLSQSPTILSASPGEKVTMTCRASSSVSYMHWYQQKPGSSPKPWIYATSNLASGVPPRFSGSGSGTSYSLTISRVGAEDAATYYCQQWSSDPWTFGGGTKLEIK", "OD450": 1.12}
{"Binder": "F4.21.2 (antibody, human IgG1, V domains shown, human-murine chimeric antibody, human IgG1) VH: QVQLKQSGPGLVQPSQSLSITCTVSGFSLSTYGVHWVRQSPGRGLEWLGVIWIGGTTDYNAAFISRLTISKDNSRGQVFFKMDSLQANDTAIYYCARKGYYKYDGGYYYAMDYWGQGTSVTVSS VL: DIQMTQSSSYLSVSLGGRVTITCKASDHINNWLAWYQQKPGNAPWLLISGATSLETGVPSRFSGSGSGKDYTLSISSLQTEDVATYYCQQYWSTPLTFGAGTKLELK", "OD450": 1.98}

Ask | Form field: reported OD450 of F5.8.6 (antibody, human IgG1, V domains shown, human-murine chimeric antibody, human IgG1) VH: QVQLHQPGAELVMPGASVTLSCKASGYTFTSYWMHWVKQRPGQGLEWIGEIDPSDSYTTYDQKFKGKATLTVDKFSSTAYMQFSSLTSEDSAVYYCARLTGNHLDYWGQGTTLTVSS VL: DIVMTQSHKFMSSSVGDRVSITCKASQDVSPAVAWYQQKPGQSPKLLIYSTSYRNTGVPDRFTGSGSGTDFTFTISSVQAEDLAVYYCQQHYSIPLTFGAGTKLELK
Reply | 0.69
